Provenance of the data: ChEMBL document CHEMBL5303304

tested on: HEK-293T; assay: Incucyte cell viability with HEK293T; type: toxicity, cell-based; settings: human, 6 h, 10 µM, compound concentration 10 uM, replicate number 1; also: unitless GR value; below 1 slowed growth and below 0 cell loss
Threshold rule: Growth Rate greater than or equal to 0.2 is t; below that, f.

Here's what some known entries look like.
input_smiles | class_name
O=C(Nc1c(-c2cccs2)nc2ccc(Cl)cn12)c1ccc(Cl)cc1 | t
COc1ccc2nc3ccc(OC)cc3c(SCCCN)c2c1.Cl | f
O=C1NCCc2c(OCCCCN3CCCCC3)cccc21 | t
O=C(O)Cc1ccc(CCNS(=O)(=O)c2ccc(Cl)cc2)cc1 | t
CCN(CC)CCO[C@H]1CC[C@@]2(C)C(=CC[C@@H]3[C@@H]2CC[C@]2(C)C(=O)CC[C@@H]32)C1.Cl | t
Cn1cc(-c2ccc3occ(-c4cccc(-c5ccncc5)c4)c3n2)cn1 | f

Input: API: above_or_equal(metric=Growth Rate, cutoff=0.2) for item CN1CCN(c2ccc(-n3cc(-c4ccncc4OCC4CCNCC4)cn3)cc2)CC1
Output: f

Input: API: above_or_equal(metric=Growth Rate, cutoff=0.2) for item CC(=O)c1ccc2c(c1)/C(=C(/Nc1cccc(C#N)c1)c1ccc3c(c1)OCCO3)C(=O)N2
Output: t

Input: API: above_or_equal(metric=Growth Rate, cutoff=0.2) for item CN[C@@H](C)C/C=C/c1cncc(OC(C)C)c1
Output: t

Input: API: above_or_equal(metric=Growth Rate, cutoff=0.2) for item CC(C)C[C@H](NC(=O)[C@@H](O)[C@H](N)Cc1ccccc1)C(=O)O
Output: t
